- System: Danio rerio larvae (5 dpf)
- MEASUREMENT_DESCRIPTION: activity during first hour (no stimuli), difference vs DMSO (percentage points (treated minus DMSO)); higher = more of the behaviour than the DMSO vehicle control
- CONDITION_SET: 10 µM; exposure time: 3 h pre-incubation + 3 h imaging
Counter-ions that a name gives are not always drawn.
activity during first hour by entry:
Field format: numeric only.

Examples with their reported activity during first hour follow.
Cc1cccc([C@H](C)c2c[nH]cn2)c1C [Dexmedetomidine hydrochloride] :: -27.8
C=CCN1C[C@H](C(=O)N(CCCN(C)C)C(=O)NCC)C[C@@H]2c3cccc4[nH]cc(c34)C[C@H]21 :: -9.57
COc1cc2c(cc1OC)C1CC(=O)C(CC(C)C)CN1CC2 (stereo not given) :: 3.91
CCN(C)C(=O)Oc1cccc([C@H](C)N(C)C)c1 [Rivastigmine tartrate] :: 6.97
CC[C@@H](C(N)=O)N1CCCC1=O :: 7.99
CN1C[C@H](C(=O)N[C@]2(C)O[C@@]3(O)[C@@H]4CCCN4C(=O)[C@H](Cc4ccccc4)N3C2=O)C[C@@H]2c3cccc4[nH]cc(c34)C[C@H]21 [Dihydroergotamine mesylate] :: 4.7
CC(O)(CS(=O)(=O)c1ccc(F)cc1)C(=O)Nc1ccc(C#N)c(C(F)(F)F)c1 (stereo not given) [Bicalutamide] :: 4.47
O=c1[nH]c2ccccc2n1C1CCN(CCCC(c2ccc(F)cc2)c2ccc(F)cc2)CC1 [Pimozide] :: -12.5
N[C@@H]1C[C@H]1c1ccccc1 [Tranylcypromine hydrochloride] :: -14.1

Read the next record carefully.
For record CC(C)C[C@H]1C(=O)N2CCC[C@H]2[C@]2(O)O[C@](NC(=O)[C@@H]3C=C4c5cccc6[nH]c(Br)c(c56)C[C@H]4N(C)C3)(C(C)C)C(=O)N12 [Bromocriptine mesylate] the listed activity during first hour is 15.2

meta.source: the supplement of paper PMC9023506
